test system: c-Src; assay: phosphorylation enrichment, bacterial display (enrichment ratio); higher = better substrate or ligand; peptides without Tyr show the background;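 note: 11-residue human phosphosite peptides and single-mutation variants displayed on the E. coli surface, counted by deep sequencing, each peptide's frequency after selection divided by its frequency in the unselected input library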;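 note: frequency after pTyr selection over input frequency; kinase dosed for 20-30% of maximal phosphorylation in three min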
reported.metric: phosphorylation enrichment
Numbers only.

Some entries whose results are on file:
INSERT INTO measurements (item_sequence, study_system, test_result) VALUES
  ('QDEHGYISWCF [HSPB1_Y133_R136W]', 'c-Src', 0.865),
  ('KHMADYPDFKF [SOX11_Y113_YF]', 'c-Src', 0.386),
  ('LKMLVYLDMSK [LRRC7_Y234]', 'c-Src', 0.441),
  ('NNTFLYQLVFD [EXO1_Y284]', 'c-Src', 2.28),
  ('FADIAYIFRHG [PAH_Y166_N167I_YF]', 'c-Src', 0.415);

Please look at the items below and tell me phosphorylation enrichment for each one, in order.
1. SPFAVYLFFTF [RPGRIP1_Y826_R827L_YF]
2. ISRVLYPNDNF [PYGM_Y281]
3. QEKKGYFEDRR [GLUL_Y336]
4. AIIEEYLHLSD [EIF4G1_Y1253_N1257S]
5. DLTQDYEEWKR [ORC6_Y232]
6. FDDDDYDMDFV [BLM_Y296_T298M]
7. KWTVDYLSQVG [TYW5_Y48]

[0.425, 0.477, 0.469, 0.458, 0.696, 0.57, 0.466]

Please look at the items below and tell me phosphorylation enrichment for each one, in order.
1. QRIHNYFEHRF [HCN4_Y554_D553N_YF]
2. SLDLSYFTTSS [EMD_Y181_P183T_YF]

0.493
0.382

###

target: EPHB2 (UniProt P29323); assay: phosphorylation enrichment, bacterial display (enrichment ratio); higher = better substrate or ligand; peptides without Tyr show the background
Sequence (P29323 whole entry, looked up): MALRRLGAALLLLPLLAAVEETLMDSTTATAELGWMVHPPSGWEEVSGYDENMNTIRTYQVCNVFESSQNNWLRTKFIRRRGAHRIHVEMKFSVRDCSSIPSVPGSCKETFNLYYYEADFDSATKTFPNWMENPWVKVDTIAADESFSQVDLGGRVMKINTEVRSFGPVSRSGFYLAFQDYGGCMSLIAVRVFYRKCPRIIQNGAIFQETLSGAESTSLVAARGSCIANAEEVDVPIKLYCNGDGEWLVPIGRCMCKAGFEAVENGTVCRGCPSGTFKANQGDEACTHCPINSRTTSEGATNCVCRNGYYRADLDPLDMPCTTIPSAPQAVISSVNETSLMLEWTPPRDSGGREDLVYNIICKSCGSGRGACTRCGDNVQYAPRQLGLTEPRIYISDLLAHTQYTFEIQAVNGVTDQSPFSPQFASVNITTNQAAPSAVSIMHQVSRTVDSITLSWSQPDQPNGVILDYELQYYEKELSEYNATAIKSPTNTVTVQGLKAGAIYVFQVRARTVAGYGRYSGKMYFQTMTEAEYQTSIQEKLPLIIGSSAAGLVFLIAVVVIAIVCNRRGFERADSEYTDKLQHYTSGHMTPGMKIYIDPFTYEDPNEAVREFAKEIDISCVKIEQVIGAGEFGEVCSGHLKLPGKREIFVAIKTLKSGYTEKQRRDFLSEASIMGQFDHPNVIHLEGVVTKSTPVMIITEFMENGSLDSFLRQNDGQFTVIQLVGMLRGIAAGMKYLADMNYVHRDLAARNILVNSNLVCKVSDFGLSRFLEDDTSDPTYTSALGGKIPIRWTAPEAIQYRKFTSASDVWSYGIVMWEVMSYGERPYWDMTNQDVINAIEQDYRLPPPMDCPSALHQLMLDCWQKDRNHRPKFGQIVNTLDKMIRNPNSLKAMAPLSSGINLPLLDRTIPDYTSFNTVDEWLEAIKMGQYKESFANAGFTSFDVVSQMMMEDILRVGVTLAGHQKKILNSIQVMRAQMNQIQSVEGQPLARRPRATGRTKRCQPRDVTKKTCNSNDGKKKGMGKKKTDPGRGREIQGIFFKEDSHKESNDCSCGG
I'd be grateful if you could share measured phosphorylation enrichment for these entries.
Give bare numbers.

Some entries whose results are on file:
INSERT INTO measurements (item_sequence, test_result) VALUES
  ('MYQVQYNSSVD [LRFN1_Y458]', 0.69),
  ('SFPSTYRFERG [INPPL1_Y661_P659S_YF]', 0.394),
  ('SGASGYSATST [CERT1_Y143]', 0.514),
  ('ASFPLYEPAKM [MKI67_Y340]', 21.1),
  ('CTTLHYNFMCN [TP53_Y234_I232L_YF]', 0.406);

Please look at the items below and tell me phosphorylation enrichment for each one, in order.
1. RSRQIYDAFIM [GRK3_Y109_YF]
2. IYHLSYLHNCE [PDE6B_Y227]

1: 2.6; 2: 0.764

Please look at the items below and tell me phosphorylation enrichment for each one, in order.
1. AMGPVYQAAAL [HYOU1_Y421_A419P]
2. MSPPGYKLVTG [GJA1_Y286]
3. EEEPVYKAEPE [HCLS1_Y360_E361K]

1. 1.25
2. 0.381
3. 0.525

Please look at the items below and tell me phosphorylation enrichment for each one, in order.
1. LKKKQYTSIHH [APP_Y728]
2. MSRDVYSIDFF [NTRK2_Y702_T704I_YF]
3. REEKNYKHKET [BCLAF1_Y459_L461H]

1. 0.605
2. 1.17
3. 0.55

Could you share what phosphorylation enrichment was measured for VLTSKYPGGGG [HBA1_Y141_R142P] , tested on EPHB2 (UniProt P29323)?
0.374

###

system: c-Src; assay: phosphorylation enrichment, bacterial display (enrichment ratio); higher = better substrate or ligand; peptides without Tyr show the background
reported.metric: phosphorylation enrichment

Please look at the items below and tell me phosphorylation enrichment for each one, in order.
1. FPPISYLNAIS [MVD_Y276]
2. QVKEQYQDVPM [PKP2_Y659_K654Q]
3. STILLYHIMAW [GPR143_Y157]

0.466
0.573
1.01

Please look at the items below and tell me phosphorylation enrichment for each one, in order.
1. APVEDYGGGGG [B4GALT6_Y382_I379V]
2. SISFDYCRVPM [BST2_Y8_T4I_YF]
3. ESKAGYRVPRS [CLDN7_Y195]
4. DNPAKYFILEN [DPP10_Y512_S517N]
5. PIAPVYAPSMV [ACAT1_Y331_A333P]

1. 0.392
2. 0.528
3. 0.43
4. 0.495
5. 8.41

Please look at the items below and tell me phosphorylation enrichment for each one, in order.
1. VGTKRYMAPKV [ACVRL1_Y375_E379K]
2. GIVEDYRPPLF [ACVRL1_Y421_F425L_YF]
3. EPAVLYNLKDR [MYH7_Y103]
4. CERFSYYGMKA [SLC15A2_Y60]

1: 0.304; 2: 0.373; 3: 0.461; 4: 1.1

###

target: Fyn (UniProt P06241); assay: phosphorylation enrichment, bacterial display (enrichment ratio); higher = better substrate or ligand; peptides without Tyr show the background
Sequence (P06241 whole entry, looked up): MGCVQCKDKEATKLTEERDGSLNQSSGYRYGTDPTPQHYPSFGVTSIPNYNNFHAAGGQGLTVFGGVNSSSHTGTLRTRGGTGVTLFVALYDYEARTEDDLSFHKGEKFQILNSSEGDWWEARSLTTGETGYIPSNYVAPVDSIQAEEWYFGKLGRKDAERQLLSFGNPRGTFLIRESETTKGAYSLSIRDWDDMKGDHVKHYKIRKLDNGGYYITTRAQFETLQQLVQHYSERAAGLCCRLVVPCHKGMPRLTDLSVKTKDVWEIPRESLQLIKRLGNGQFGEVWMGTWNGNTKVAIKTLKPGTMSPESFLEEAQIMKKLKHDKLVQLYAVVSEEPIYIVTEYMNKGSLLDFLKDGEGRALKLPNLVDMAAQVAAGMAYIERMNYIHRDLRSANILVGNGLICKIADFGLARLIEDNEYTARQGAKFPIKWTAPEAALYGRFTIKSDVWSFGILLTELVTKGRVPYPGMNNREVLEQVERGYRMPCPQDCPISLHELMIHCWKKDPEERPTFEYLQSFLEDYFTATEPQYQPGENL
I'd be grateful if you could share measured phosphorylation enrichment for these entries.
Give bare numbers.

Some entries whose results are on file:
INSERT INTO assay_data (item_sequence, test_result) VALUES
  ('RRGTGYTLPLP [MAGEC3_Y152_S155P]', 0.642),
  ('KAIMIYVSSFF [ACTN4_Y260_T259I_YF]', 0.422);

Please look at the items below and tell me phosphorylation enrichment for each one, in order.
1. WQQQSYLYSGI [CTNNB1_Y30_D32Y]
2. IYETDYYRKGG [INSR_Y1189]
3. EWLRRYLENGK [HLA-A_Y195]
4. SGRRRYTIAAL [TTR_Y125_P122R]
5. NMSRIYSTAKV [ACE_Y151]
6. YLEEEYVKAVG [TF_Y674_G671E]
7. SPLTDYSPQLQ [OTC_Y345_L341P]

[7.05, 1.14, 0.346, 0.61, 0.477, 0.491, 0.403]

Please look at the items below and tell me phosphorylation enrichment for each one, in order.
1. WFQTKYEELQV [KRT6B_Y360_I365V_YF]
2. ILILKYPIEHG [ACTA1_Y71_T68I]
3. EQSNPYMVLDI [ROCK2_Y1197]
4. FSQQTYYPVSN [ABCD1_Y180_R182P]

1. 0.359
2. 0.39
3. 2.5
4. 2.76

Please look at the items below and tell me phosphorylation enrichment for each one, in order.
1. KGEDFYSVTCH [FHL1_Y149_C150S]
2. PGAPAYRVLME [MYO5A_Y1245]
3. GRQGIYTENER [GPR143_Y231]
4. IQSAKYDMAED [TTC21B_Y1213]
5. KIKGRYEKCEP [KRT26_Y119_W118R]
6. SPFAVYLFFTF [RPGRIP1_Y826_R827L_YF]
7. GVIKEYQIRQV [USH2A_Y3623]

1. 5.87
2. 0.542
3. 0.511
4. 0.59
5. 0.412
6. 0.477
7. 0.356

Please look at the items below and tell me phosphorylation enrichment for each one, in order.
1. MFRVQYNSSVD [LRFN1_Y458_Q455R_YF]
2. MSRDVYSIDFF [NTRK2_Y702_T704I_YF]

[0.424, 8.38]

Please look at the items below and tell me phosphorylation enrichment for each one, in order.
1. FDKEFYSVHNK [MET_Y1235_YF]
2. TIQRMYGCDVG [HLA-A_Y123_I121R]
3. NVSILYTASQA [CTNNA1_Y222_P219S]
4. FNSLPYQVPTS [CALCOCO2_Y358]

[0.479, 0.442, 0.447, 0.467]

Please look at the items below and tell me phosphorylation enrichment for each one, in order.
1. NTGDFCDLFGG [PTPN11_Y63_Y63C_YF]
2. FQNSLYAPDYS [FAM92A_Y226_R222Q]
3. AVLQPYIFVAT [CFTR_Y1014]

1. 0.499
2. 1.07
3. 0.606

###

biological target: EPHB1 (UniProt P54762); assay: phosphorylation enrichment, bacterial display (enrichment ratio); higher = better substrate or ligand; peptides without Tyr show the background
Sequence (P54762 whole entry, looked up): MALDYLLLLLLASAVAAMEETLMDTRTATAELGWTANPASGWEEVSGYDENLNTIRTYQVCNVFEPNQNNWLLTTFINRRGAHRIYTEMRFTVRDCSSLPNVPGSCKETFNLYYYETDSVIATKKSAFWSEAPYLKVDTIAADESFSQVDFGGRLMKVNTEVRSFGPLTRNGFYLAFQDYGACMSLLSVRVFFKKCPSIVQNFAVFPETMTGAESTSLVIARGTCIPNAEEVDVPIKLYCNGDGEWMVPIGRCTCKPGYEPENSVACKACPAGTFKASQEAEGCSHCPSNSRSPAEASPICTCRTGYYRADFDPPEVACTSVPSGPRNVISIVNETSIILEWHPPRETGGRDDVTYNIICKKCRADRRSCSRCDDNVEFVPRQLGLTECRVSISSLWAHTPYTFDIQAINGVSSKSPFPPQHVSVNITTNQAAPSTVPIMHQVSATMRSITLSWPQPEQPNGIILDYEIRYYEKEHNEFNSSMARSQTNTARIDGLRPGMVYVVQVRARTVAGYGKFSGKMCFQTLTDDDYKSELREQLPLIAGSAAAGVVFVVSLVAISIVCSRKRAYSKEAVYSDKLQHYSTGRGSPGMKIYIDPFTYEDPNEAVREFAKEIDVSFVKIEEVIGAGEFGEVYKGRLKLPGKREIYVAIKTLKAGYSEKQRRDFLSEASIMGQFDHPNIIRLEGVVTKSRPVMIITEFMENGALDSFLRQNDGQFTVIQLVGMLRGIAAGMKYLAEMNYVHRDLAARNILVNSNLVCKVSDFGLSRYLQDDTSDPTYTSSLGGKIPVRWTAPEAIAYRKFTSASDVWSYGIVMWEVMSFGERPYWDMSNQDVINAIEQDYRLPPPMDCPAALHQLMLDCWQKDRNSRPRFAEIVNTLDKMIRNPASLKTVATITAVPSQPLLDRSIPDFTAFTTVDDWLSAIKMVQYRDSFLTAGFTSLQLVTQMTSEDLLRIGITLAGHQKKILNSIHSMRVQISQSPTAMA
reported.metric: phosphorylation enrichment

Some entries whose results are on file:
INSERT INTO measurements (item_sequence, reported_metric, test_result) VALUES
  ('PGPPGYCDSSQ [COL12A1_Y3043]', 'phosphorylation enrichment', 0.914),
  ('SNSATYSGSVA [PDLIM5_Y382]', 'phosphorylation enrichment', 0.347),
  ('NPQKSCFIRLY [WAS_Y83_Y83C]', 'phosphorylation enrichment', 0.597),
  ('DNEFAYLKAII [HNF4A_Y288_YF]', 'phosphorylation enrichment', 0.45),
  ('QTPVLYAMLYH [MPZ_Y220_D224Y]', 'phosphorylation enrichment', 9.9);

Please look at the items below and tell me phosphorylation enrichment for each one, in order.
1. CEAMEYPESKQ [BTK_Y511_L512P]
2. IQSAKYDMAED [TTC21B_Y1213]
3. NAGAFYVLSTL [FLVCR2_Y325_A326V]
4. MTFQNYGQALF [FAM20C_Y279]
5. MCITRYERESQ [PRNP_Y218_Q217R]

[0.676, 0.572, 0.55, 0.758, 0.429]
